- PROCEDURE_TEXT: Human HepG2 cell viability assay in 384 well format
- Format: toxicity, cell-based
- Set-up: dose 125 nL, time 70.5 hour; concentration not given beside the values
- CONDITION_CONTEXT: HepG2 cells, read-out: Inhibition
ASSAY_READOUT: cytotoxicity at 70.5 h (%)
Only the number, expressed in %, is required.

# count of solved cases: 5
{"COMPOUND": "CS(=O)(=O)NC[C@]12COC[C@H]1CN(C(=O)c1ccoc1)C2", "cytotoxicity at 70.5 h / %": -3.34}
{"COMPOUND": "Cc1cncc(C(=O)N2CCO[C@H]3[C@H](OCCN(C)C)CC[C@@H]32)c1", "cytotoxicity at 70.5 h / %": -12.9}
{"COMPOUND": "CCCc1cc(=O)[nH]c(-n2nc(-c3cccs3)cc2N)n1", "cytotoxicity at 70.5 h / %": -12.8}
{"COMPOUND": "COc1ccc(Br)cc1CCC(=O)N1CCC(O)CC1", "cytotoxicity at 70.5 h / %": -4.79}
{"COMPOUND": "CSc1ncc(CNCC2(N3CCCCC3)Cc3ccccc3C2)cn1", "cytotoxicity at 70.5 h / %": -1.26}

Documented cytotoxicity at 70.5 h of CCc1ccc(CN2CCN(c3ccc(C(N)=O)cn3)CC2)nc1 : 2.82

Note to self: cytotoxicity at 70.5 h recorded for COc1ccc(C2CN(c3ncccn3)CCN2C(C)=O)cc1 (stereo unspecified) was -5.51

cytotoxicity at 70.5 h recorded for this compound, c1nc(N2CCCC2Cn2cncn2)c2ccsc2n1 (stereo unspecified) , is 30.4

Lab note: measured cytotoxicity at 70.5 h of CC1CN(Cc2cnn(C)c2)CCN1c1ccc2nncn2n1 (stereo unspecified) was -14.4

cytotoxicity at 70.5 h measured on CCCN1CCN(C(=O)c2scnc2C)CC1 = -3.56

Entry CC(C)c1noc(C(C)N2CCN(Cc3nc4ccccc4[nH]3)CC2)n1 (stereo unspecified) — recorded cytotoxicity at 70.5 h = -8.5
